- Tested on: Escherichia coli
- assay_protocol: Inhibition of transglycosylase activity of Escherichia coli PBP1b assessed as remaining activity at 500 uM incubated for 30 mins by continous fluorescence assay
Record form. Attribute: Activity. Fill in for each entry.
One number for each entry, in %.

As a guide, the following entries are already answered.
N=C(N)NCCc1cn(Cc2ccc(F)cc2)c2ccccc12 ... 42
COc1ccc(Cn2cc(CCN)c3ccccc32)cc1 ... 80

List the reported Activity of each molecule below.
1. Cl.N=C(N)NCCc1cn(Cc2ccc(Cl)c(Cl)c2)c2ccccc12
2. NCCc1cn(Cc2cccc(Cl)c2)c2ccccc12
3. COc1ccc2c(c1)c(CCN)c(C)n2Cc1ccc(C#N)cc1
4. NCCc1cn(Cc2ccc(F)cc2)c2ccccc12
5. Cl.NCCc1cn(Cc2ccc(Cl)c(Cl)c2)c2ccccc12
6. COc1ccc2c(c1)c(CCN)c(C)n2Cc1ccc(Cl)c(Cl)c1.Cl
7. N=C(N)NCCc1cn(Cc2ccccc2)c2ccccc12

Ans:
1. 1
2. 54
3. 118
4. 97
5. 15
6. 5
7. 73

List the reported Activity of each molecule below.
1. NCCc1cn(Cc2ccc(F)c(F)c2)c2ccccc12
2. COc1cccc(Cn2cc(CCNC(=N)N)c3ccccc32)c1
3. COc1ccc2c(c1)c(CCNC(=N)N)cn2Cc1ccc(F)c(F)c1
4. COc1ccc2c(c1)c(CCN)cn2Cc1ccc(Cl)c(Cl)c1.Cl
5. N#Cc1cccc(Cn2cc(CCNC(=N)N)c3ccccc32)c1
6. COc1ccc2c(c1)c(CCNC(=N)N)c(C)n2Cc1ccc(Cl)c(Cl)c1.Cl

Ans:
1: 62; 2: 55; 3: 28; 4: 24; 5: 79; 6: 4

List the reported Activity of each molecule below.
1. Cl.N=C(N)NCCc1cn(Cc2ccc(F)c(F)c2)c2ccccc12
2. COc1ccc2c(c1)c(CCN)c(C)n2Cc1ccccc1
3. N=C(N)NCCc1cn(Cc2cccc(Cl)c2)c2ccccc12

Ans:
[10, 75, 15]
